Hey, just so you know, these numbers are from the supplement of paper PMC12667976.

Here, each record is paired with measured AIRE transcriptional activation functional score data.
B1: library; numbered along this chain (parent)
chain: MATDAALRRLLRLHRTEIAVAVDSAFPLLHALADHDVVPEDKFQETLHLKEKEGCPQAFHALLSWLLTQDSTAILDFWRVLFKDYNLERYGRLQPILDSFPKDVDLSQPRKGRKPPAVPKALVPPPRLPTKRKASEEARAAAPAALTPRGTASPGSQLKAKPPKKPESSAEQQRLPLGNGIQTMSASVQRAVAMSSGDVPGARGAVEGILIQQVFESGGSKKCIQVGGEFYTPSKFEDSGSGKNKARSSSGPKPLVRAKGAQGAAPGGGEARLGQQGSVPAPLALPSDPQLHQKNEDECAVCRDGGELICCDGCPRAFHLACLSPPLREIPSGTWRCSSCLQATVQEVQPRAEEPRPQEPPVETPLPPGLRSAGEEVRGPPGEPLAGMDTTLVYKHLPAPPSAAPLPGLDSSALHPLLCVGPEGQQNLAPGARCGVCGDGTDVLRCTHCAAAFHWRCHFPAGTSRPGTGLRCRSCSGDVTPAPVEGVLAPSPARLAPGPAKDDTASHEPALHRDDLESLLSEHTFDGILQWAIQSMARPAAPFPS

- Variants of: B1
- PROTOCOL DESCRIPTION: AIRE transcriptional activation functional score (insulin promoter-GFP; nonsense median 0, synonymous median 1) (normalised score); higher = higher AIRE activity (more reporter activation)
- ASSAY CONDITIONS: with insulin promoter-GFP reporter in HEK293
API doc: respond with a numeric literal and nothing else, no unit.

Consider the following illustrative entries.
E375G    0.999
C437D    0.609
R494W    1.41

I have this variant here, `G382C` , and I need its recorded AIRE transcriptional activation functional score. 0.802

I have this variant here, `G306Q` , and I need its recorded AIRE transcriptional activation functional score. 1.14

I have this variant here, `R9Q` , and I need its recorded AIRE transcriptional activation functional score. 1.13

I have this variant here, `S402W` , and I need its recorded AIRE transcriptional activation functional score. 1.22

I have this variant here, `V484R` , and I need its recorded AIRE transcriptional activation functional score. 0.893

I have this variant here, `S324W` , and I need its recorded AIRE transcriptional activation functional score. 1.45

I have this variant here, `L470C` , and I need its recorded AIRE transcriptional activation functional score. 0.85

I have this variant here, `A429H` , and I need its recorded AIRE transcriptional activation functional score. 1.47

I have this variant here, `I96D` , and I need its recorded AIRE transcriptional activation functional score. -0.0149

I have this variant here, `R371D` , and I need its recorded AIRE transcriptional activation functional score. 1

I have this variant here, `E167P` , and I need its recorded AIRE transcriptional activation functional score. 0.414

I have this variant here, `M536V` , and I need its recorded AIRE transcriptional activation functional score. 0.514
